# subject.of.test: D(2) dopamine receptor (Rattus norvegicus, UniProt P61169)
# Sequence (P61169 whole entry): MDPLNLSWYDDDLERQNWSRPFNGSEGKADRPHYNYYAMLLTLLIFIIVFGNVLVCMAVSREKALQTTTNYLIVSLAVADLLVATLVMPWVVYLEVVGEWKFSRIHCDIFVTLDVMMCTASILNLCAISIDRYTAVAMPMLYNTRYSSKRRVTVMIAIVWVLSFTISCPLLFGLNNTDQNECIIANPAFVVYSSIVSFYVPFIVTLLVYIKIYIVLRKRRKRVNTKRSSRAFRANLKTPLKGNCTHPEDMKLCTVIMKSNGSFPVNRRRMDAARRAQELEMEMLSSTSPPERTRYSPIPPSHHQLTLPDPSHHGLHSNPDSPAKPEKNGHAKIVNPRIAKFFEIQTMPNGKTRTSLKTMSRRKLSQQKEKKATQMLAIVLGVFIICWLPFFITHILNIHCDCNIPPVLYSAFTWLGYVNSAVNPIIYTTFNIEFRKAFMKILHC
# protocol.details: biochemical
# Format: cell-based, C6 glioma
metric: log10 Kd (log10 of the value in µM)
# log10 transformed; quantity=Kd; unit=µM

Entry CC(C)C[C@H]1C(=O)N2CCC[C@H]2[C@]2(O)O[C@](NC(=O)[C@@H]3C=C4c5cccc6[nH]c(Br)c(c56)C[C@H]4N(C)C3)(C(C)C)C(=O)N12 : reported log10 Kd = ? -2.10

Give the measured log10 Kd of COc1cc(CCN)ccc1O . 1.97

Find the recorded log10 Kd belonging to N[C@@H]1CCc2cc(O)c(O)cc2C1 and report it. -0.68

Which measured log10 Kd value corresponds to CCCN1Cc2c(C)cccc2[C@@H]2c3cc(O)c(O)cc3CC[C@H]21 ? -0.52

Endpoint output: log10 Kd of CN1C[C@H](C(N)=O)C=C2c3cccc4[nH]cc(c34)C[C@H]21 . Value? -3.21

What does the data say about its log10 Kd? Entry: CCN(CC)C(=O)N[C@H]1C=C2c3cccc4[nH]cc(c34)C[C@H]2N(C)C1 [LISURIDE] -3.22

----------
Consider the following compounds; for each one, report its Kd.
# subject.of.test: D(2) dopamine receptor (Rattus norvegicus, UniProt P61169, S193A)
# Sequence (P61169 whole entry S193A): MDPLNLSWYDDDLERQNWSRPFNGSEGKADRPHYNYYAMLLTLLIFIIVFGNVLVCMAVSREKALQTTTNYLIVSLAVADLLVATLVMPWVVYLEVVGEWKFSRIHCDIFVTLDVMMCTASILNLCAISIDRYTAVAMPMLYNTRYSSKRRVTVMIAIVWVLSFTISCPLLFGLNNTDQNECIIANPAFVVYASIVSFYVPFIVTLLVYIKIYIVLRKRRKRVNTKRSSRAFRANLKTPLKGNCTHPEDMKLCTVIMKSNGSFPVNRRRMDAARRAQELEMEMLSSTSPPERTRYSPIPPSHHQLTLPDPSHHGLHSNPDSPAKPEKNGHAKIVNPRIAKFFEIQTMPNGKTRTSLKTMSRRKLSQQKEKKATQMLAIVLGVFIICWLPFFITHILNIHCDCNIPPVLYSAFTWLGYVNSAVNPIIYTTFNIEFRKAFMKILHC
# protocol.details: In vitro affinity at mutant D2 receptor (S193A) in C6 (glioma) cell membranes.
The answer is to be given in nM; state only the numeric part.

API: value(readout= Kd, system= D(2) dopamine receptor (Rattus norvegicus, UniProt P61169, S193A), query= CN1C[C@H](C(N)=O)C=C2c3cccc4[nH]cc(c34)C[C@H]21 ) 2.8

Provide value of Kd for this record tested with D(2) dopamine receptor (Rattus norvegicus, UniProt P61169, S193A): CCCN1Cc2c(C)cccc2[C@@H]2c3cc(O)c(O)cc3CC[C@H]21 1300

----------
Task for the reader: assign each of the following molecules its reported pKd.
# subject.of.test: D(2) dopamine receptor (Rattus norvegicus, UniProt P61169, S194A)
# Sequence (P61169 whole entry S194A): as the sequence (P61169 whole entry) above, with S194A counted along it
# protocol.details: biochemical
# Assay type: cell-based, C6 glioma
Value format note: pKd is -log10 of concentration (mol/L); just state the number.

# returns recorded pKd (system: D(2) dopamine receptor (Rattus norvegicus, UniProt P61169, S194A)) for COc1cc(CCN)ccc1O 4.06

Could you share what pKd was measured for CCN(CC)C(=O)N[C@H]1C=C2c3cccc4[nH]cc(c34)C[C@H]2N(C)C1 [LISURIDE] , tested on D(2) dopamine receptor (Rattus norvegicus, UniProt P61169, S194A)? 8.64

Under D(2) dopamine receptor (Rattus norvegicus, UniProt P61169, S194A): pKd value of CC(C)C[C@H]1C(=O)N2CCC[C@H]2[C@]2(O)O[C@](NC(=O)[C@@H]3C=C4c5cccc6[nH]c(Br)c(c56)C[C@H]4N(C)C3)(C(C)C)C(=O)N12 ? 7.77

Under D(2) dopamine receptor (Rattus norvegicus, UniProt P61169, S194A): pKd value of N[C@@H]1CCc2cc(O)c(O)cc2C1 ? 6.35

----------
I'd appreciate it if you could supply Kd values for the items below.
# subject.of.test: D(2) dopamine receptor (Rattus norvegicus, UniProt P61169)
# protocol.details: biochemical
# Format: cell-based, C6 glioma
# test.settings: c6 glioma
Use µM as the unit, but write only the number.

What value of Kd has been recorded for this entry: CN1C[C@H](C(N)=O)C=C2c3cccc4[nH]cc(c34)C[C@H]21 0.00062

# lookup: Kd of CCCN1Cc2c(C)cccc2[C@@H]2c3cc(O)c(O)cc3CC[C@H]21 0.3
